src = PubChem BioAssay (NCI)

System: MALME-3M melanoma
Experiment: NCI-60 one-dose screen, 48 h (100 = growth as untreated, 0 = no growth, -100 = all killed)
Details: 10 µM unless noted
This is part of a sample that, as a whole, favours compounds with a hit. Of some 83,000 tested, about 20% had one in any assay. The source made the active and inactive calls. The calls were made as follows: active = growth percent below 10; inactive = the rest.
A collection of compounds and their measured growth
assay metric: growth

COc1cccc(/C=C2\COc3ccc(O)cc3C2=O)c1; 91.1% (inactive)
CCOc1ccc(/C=N\N=C\c2ccc(OCC)cc2)cc1; 115% (inactive)
Cc1c2ccccc2nc2c1ccc1cccnc12; 88.3% (inactive)
C#CCOc1cccc(-c2ncc3cc(NC(=O)CCl)ccc3n2)c1; -69% (active)
CC(C)CCC[C@@H](C)C1CCC2C3CCC4=C/C(=N/OCCN(C)C)CC[C@]4(C)C3CC[C@@]21C (stereo partly specified); 91.2% (inactive)
CCn1cc(C(=O)NN=C2CCCCCC2)c(=O)c2ccc(C)nc21; 97.1% (inactive)
O=C(O)CCCn1c(SCc2c(Cl)cccc2Cl)nc2ccsc2c1=O; 47.7% (inactive)
Cc1cc(F)ccc1S(=O)(=O)Nc1cc(-c2c(O)ccc3ccccc23)c(O)c2ccccc12; 15.3% (inactive)
CCCCCCCC/C=C\CCCCCCCCOc1ccccc1CC(=O)NCC[N+]1(C)CCCCC1; 69.8% (inactive)
Clc1nccc2c(-c3csc(-c4c[nH]c5ccccc45)n3)c[nH]c12; 79.8% (inactive)
CCOC(=O)c1c(C)c2c(n1C)CSc1cc(S(=O)(=O)c3ccccc3)c(=O)[nH]c1-2; 73.2% [100 µM] (inactive)

* * *

Tested on: SN12C renal
Assay: NCI-60 one-dose screen, 48 h (100 = growth as untreated, 0 = no growth, -100 = all killed)
Details: 10 µM unless noted
About 83,000 compounds went through this panel and 20% of them were active in at least one assay; those are over-represented in the sample as a whole.
Note to self: growth under 40% means class 1, ties and anything higher get class 0.

CNCc1cccc2c1OCCOCCN(C)C(=O)CN(C)S(=O)(=O)c1ccc(cc1)-c1cnc(N)c(n1)C(=O)N2; class 1
COc1cc2ncnc(Nc3ccc(F)c(Cl)c3)c2cc1OCC(=O)N1CCN(c2ccc(F)cc2)CC1; class 0
NC(=S)N/N=C/c1cn(-c2ccccc2)nc1-c1cc2ccccc2oc1=O; class 0
CCN(CC)CCNC(=O)c1ccc(-c2nc3ccc4[nH]ncc4c3c3c2CCCC3)cc1; class 0
Oc1c(I)cc(-c2nc3ccccc3s2)cc1CN(Cc1ccccn1)Cc1ccccn1; class 1
COc1cc(C(=O)c2c(N)ncn2-c2ccccc2)cc(OC)c1OC; class 0
COc1ccc(C2C(C#N)=C(N)Oc3c2sc2c(Br)cccc32)cc1 (stereo unspecified); class 1
COc1ccc(C(C)=O)cc1S(N)(=O)=O; class 0
Cc1nc2sc(C(=O)Nc3cccc(Cl)c3)c(N)c2cc1C(O)c1ccccc1 (stereo unspecified); class 1
COc1ccc2nc3cc(Cl)ccc3c(NCCN)c2c1; class 1
Cc1[nH]c(/C=C/C(=O)c2ccc(C(F)(F)F)c(F)c2)c(C)c1C(=O)NCC(C)C; class 0
CC(=O)N/C(=C1/OC(C(O)C(O)C(O)CO)CN1C)[P+](c1ccccc1)(c1ccccc1)c1ccccc1 (stereo unspecified); class 0
COc1ccc(-c2nnc(SCC(=O)Nc3ccc(/C(C)=N\O)cc3)n2-c2ccccc2)cc1OC; class 0
COc1cc(-c2nc(SCCC(C)C)nc(N3CCOCC3)c2C#N)cc(OC)c1OC; class 0
CCN(CC)CCCNCc1cc(-c2ccccc2)nc2cc(Cl)ccc12; class 1
N#C/C(=C\c1ccc(Br)cc1)c1cc2ccccc2[nH]1; class 0
COc1ccc(-c2oc(=O)ccc2-c2cc(OC)c(OC)c(OC)c2)cc1O; class 1
CN1CCN(CCCOC(=O)c2c3c(n4ccccc24)C(=O)c2ncccc2C3=O)CC1; class 1
CC(C)(CO)N(CCO)CCO; class 0
Cc1[nH]c(C(=O)Nc2cccc(OC3CCNCC3)c2)c(Cl)c1Cl; class 0
CCN1C(=O)N(CC)C2C1NN=c1s/c(=C\c3cc4ccccc4[nH]3)c(=O)n12 (stereo unspecified); class 1

* * *

Tested on: TK-10 renal
Assay: NCI-60 one-dose screen, 48 h (100 = growth as untreated, 0 = no growth, -100 = all killed)
Settings: 10 µM unless noted
Compounds without any hit were thinned out: in the full panel of roughly 83,000, 20% have a hit.
assay metric: growth (%)

O=C(CCCCCCN1CC(=O)N2[C@@H](c3ccc(Cl)cc3)c3[nH]c4ccccc4c3C[C@H]2C1=O)NO; 110
COc1ccc(Cc2cnc(NC(=O)c3sc4ccccc4c3Cl)s2)cc1; 63.1
COc1cc(-c2nc3occn3c2-c2ccnc(NCCCNS(=O)(=O)c3ccccc3)n2)ccc1F; 49.5
CCOC(=O)c1c2c(n3ccccc13)C(=O)c1ncccc1C2=O; 38.4
Nc1nc(C(=O)N/N=C/c2ccc(N3CCOCC3)cc2)nn1-c1ccc(S(N)(=O)=O)cc1; 94.4

* * *

Tested on: U251 CNS
Assay: NCI-60 one-dose screen, 48 h (100 = growth as untreated, 0 = no growth, -100 = all killed)
Details: 10 µM unless noted
This is part of a sample that, as a whole, favours compounds with a hit. Of some 83,000 tested, about 20% had one in any assay.
Note to self: growth under 30% means TRUE, ties and anything higher get FALSE.

C[C@@H]1CC[C@@]2(OC1)O[C@H]1C[C@H]3[C@@H]4CC=C5C[C@@H](O[C@@H]6O[C@H](CO)[C@@H](O[C@@H]7O[C@@H](CO)[C@H](O)[C@H]7O)[C@H](O)[C@H]6O[C@@H]6O[C@@H](C)[C@H](O)[C@@H](O)[C@H]6O)CC[C@]5(C)[C@H]4CC[C@]3(C)[C@H]1[C@@H]2C; TRUE
Cc1ccc(C)c2c1C(O)(C#Cc1ccccc1)c1ccccc1C2(O)C#Cc1ccccc1 (stereo unspecified); FALSE
COc1cc2oc(-c3cccc(NC(=O)c4ccc5c(c4)OCO5)c3)cc(=O)c2c(OC)c1OC; FALSE
NS(=O)(=O)c1ccc(N/C=C/C(=O)c2cc3ccccc3oc2=O)cc1; FALSE
C#CC#CC#CC#CC#CC#CC#CC#CC[C@H]1OC[C@H](COC(=O)O[C@@H](C(=O)O[C@H]2C[C@@]3(O)[C@@H](OC(=O)c4ccccc4)[C@@H]4[C@]5(OC(C)=O)CO[C@@H]5C[C@H](O)[C@@]4(C)C(=O)[C@H](OC(C)=O)C(=C2C)C3(C)C)[C@@H](NC(=O)c2ccccc2)c2ccccc2)O1; FALSE
CCOc1ccc(/C=N\N=C\c2ccc(OCC)cc2)cc1; FALSE

* * *

Test system: NCI/ADR-RES ovarian
Experiment: NCI-60 one-dose screen, 48 h (100 = growth as untreated, 0 = no growth, -100 = all killed)
Settings: 10 µM unless noted
About 83,000 compounds went through this panel and 20% of them were active in at least one assay; those are over-represented in the sample as a whole.
assay metric: growth (%)

COc1ccc(-c2cc(C(=O)N3N=C(c4ccc(N)cc4)CC3c3ccccc3)c3ccccc3n2)cc1 (configuration not stated); 34.4
CC[C@@H](c1ccc2cc(OC)ccc2c1)C(C)(C)C(=O)F; 77.5
C#CC#CC#CC#CC#CC#CC#CC#CC[C@H]1OC[C@@H](COC(=O)O[C@@H](C(=O)O[C@H]2C[C@@]3(O)[C@@H](OC(=O)c4ccccc4)[C@@H]4[C@]5(OC(C)=O)CO[C@@H]5C[C@H](O)[C@@]4(C)C(=O)[C@H](OC(C)=O)C(=C2C)C3(C)C)[C@@H](NC(=O)c2ccccc2)c2ccccc2)O1; 108
CCCCCCCCn1ccc2cc(NC(=O)Cn3cc(CN4CCC(C)CC4)nn3)ccc21; 63.1
N#Cc1nc2c(S(=O)(=O)c3ccccc3)c(N)n(Cc3cccnc3)c2nc1C#N; 94.6
C=CC(C)(O)CC/C=C(\CO)C(=O)OC1C(C)OC(O[C@](C)(C=C)CC/C=C(\CO)C(=O)O[C@H]2C[C@@]3(C(=O)OC4OC(CO)C(O)C(O)C4OC4OC(C)C(OC5OC(CO)C(O)C5O)C(OC5OC(CO)C(O)C(O)C5O)C4O)C(CC2(C)C)C2=CCC4[C@@]5(C)CC[C@H](OC6OC(COC7OC(C)C(O)C(O)C7OC7OCC(O)C(O)C7O)C(O)C(O)C6NC(C)=O)C(C)(C)C5CC[C@@]4(C)[C@]2(C)C[C@H]3O)C(O)C1O (some centres not stated); 17.5
C#CCn1cnc2c(Nc3cccc(NC(=O)CCl)c3)ncnc21; 49.1

* * *

Test system: A498 renal
Assay: NCI-60 one-dose screen, 48 h (100 = growth as untreated, 0 = no growth, -100 = all killed)
Settings: 10 µM unless noted
The panel holds about 83,000 compounds, 20% with a hit somewhere; the sample as a whole holds those more often.
assay metric: growth (%)

O=C(N/N=C/c1ccc(Cl)cc1Cl)c1ccc2nc(-c3ccc(Cl)cc3)[nH]c2c1; 56.2
CCN(CC)c1ccc(/C=N/NC(=O)c2ccc(Nc3ccnc(C(F)(F)F)c3)cc2)c(O)c1; 44.3
COc1cc(C2Cc3ncccc3-c3[nH]c(=O)c4cccnc4c32)cc(OC)c1OC (stereo not given); -1.31
N#C/C(=C\c1ccc(Cl)cc1Cl)C(=O)Nc1ncc(Cc2ccc(Cl)c(Cl)c2)s1; 101
Nc1c(C(=O)O)cc(Cl)cc1[N+](=O)[O-]; 100
